Target: Adenosine receptor A3 (Homo sapiens)
Sequence (P0DMS8 whole entry): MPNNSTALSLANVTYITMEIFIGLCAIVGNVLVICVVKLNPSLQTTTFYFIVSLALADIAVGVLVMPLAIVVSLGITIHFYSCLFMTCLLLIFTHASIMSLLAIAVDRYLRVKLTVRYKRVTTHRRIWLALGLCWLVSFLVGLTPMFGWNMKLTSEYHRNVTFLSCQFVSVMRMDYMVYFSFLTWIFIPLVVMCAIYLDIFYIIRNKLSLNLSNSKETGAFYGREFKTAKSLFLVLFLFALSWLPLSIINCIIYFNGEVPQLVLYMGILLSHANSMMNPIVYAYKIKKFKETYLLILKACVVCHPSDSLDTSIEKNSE
Test: Displacement of [3H]NECA from human recombinant adenosine A3 receptor expressed in human HeLa cells by microplate beta scintillation counter
Form field: Ki (one value per entry).
Number in nM, nothing else.

>>> endpointvalue("CCCn1c(=O)c2[nH]c(-c3ccccc3)nc2n(CC2CCCO2)c1=O (configuration not stated)")
135
>>> endpointvalue("CCn1c(=O)c2[nH]c(Cc3cccs3)nc2n(Cc2cccs2)c1=O")
813
>>> endpointvalue("CCSCCn1c(=O)n(CC)c(=O)c2[nH]c(-c3ccccc3)nc21")
407

Query :: If you can, please state the reported Ki value of CCCn1c(=O)c2[nH]c(-c3ccccc3)nc2n(CC[S+]([O-])CC)c1=O (configuration not stated) .
Result :: 245

Query :: And then `CCCn1c(=O)c2[nH]c(-c3ccccc3)nc2n(CCSCC)c1=O` , what is it?
Result :: 117

Query :: What would you report for `CCCn1c(=O)c2[nH]c(-c3ccccc3)nc2n(CCS(=O)(=O)CC)c1=O` ?
Result :: 93.3

Query :: Queued: CCCn1c(=O)c2c(nc(-c3ccccc3)n2C)n(CC2CCCO2)c1=O (configuration not stated)
Result :: 631
